FYI, the data here is from the supplement of paper PMC8371130.

Collected relative cell viability values appear next to each entry.
# Tested on: HL-1
# assay.details: relative cell viability (CellTiter-Glo) vs DMSO control (% of DMSO control); higher = more viable cells
# cond: oxygen condition: normoxia 72 h; 200 nM
Where a name gives a salt, the structure may show the parent alone.
The answer should be written as a number, with no unit following it.

As a guide, the following entries are already answered.
>>> test_value("CCCCc1nc(Cl)c(CO)n1Cc1ccc(-c2ccccc2-c2nnn[nH]2)cc1")
108
>>> test_value("OC[C@@H](O)[C@@H](O)[C@H](O)[C@@H](O)CO")
106
>>> test_value("CC(C)CC(N)=O [Isovaleramide]")
90.2
>>> test_value("NC[C@H]1CC[C@H](C(=O)O)CC1")
104
>>> test_value("O=c1cc[nH]c(=S)[nH]1")
103

## Input Recorded relative cell viability for CCOC(=O)[C@H](CCc1ccccc1)N[C@H]1CS[C@H](c2cccs2)CN(CC(=O)O)C1=O [Temocapril HCl] with HL-1, please?
## Output 77.1

## Input Recorded relative cell viability for CN(C)CCOC(C)(c1ccccc1)c1ccccn1 (configuration not stated) [Doxylamine Succinate] with HL-1, please?
## Output 112

---

# Tested on: HL-1
# assay.details: relative cell viability (CellTiter-Glo) vs DMSO control (% of DMSO control); higher = more viable cells
# cond: oxygen condition: normoxia 72 h; 5000 nM
Where a name gives a salt, the structure may show the parent alone.
value.kind: relative cell viability
The answer should be written as a number, with no unit following it.

>>> test_value("CC(COc1ccccc1)N(CCCl)Cc1ccccc1 (stereo not given) [Phenoxybenzamine HCl]")
107
>>> test_value("CNC[C@@H](O)c1ccc(O)c(O)c1 [L-Adrenaline]")
95.4
>>> test_value("Cn1c([N+](=O)[O-])cnc1COC(N)=O [Ronidazole]")
110
>>> test_value("CN(C(=O)CN(CCO)CC(=O)N(C)C(C)(C)Cc1ccccc1)C(C)(C)Cc1ccccc1 [Oxethazaine]")
128
>>> test_value("Cc1nc2n(c(=O)c1CCN1CCC(c3noc4cc(F)ccc34)CC1)CCCC2O (stereo not given) [Paliperidone]")
118

## Input Recorded relative cell viability for COc1ccc2[nH]c([S@@+]([O-])Cc3ncc(C)c(OC)c3C)nc2c1 [Esomeprazole sodium] with HL-1, please?
## Output 114

## Input Recorded relative cell viability for CCCCC[C@H](O)/C=C/[C@H]1[C@H](O)CC(=O)[C@@H]1CCCCCCC(=O)O [Alprostadil] with HL-1, please?
## Output 101

## Input Recorded relative cell viability for CCN[C@H]1C[C@H](C)S(=O)(=O)c2sc(S(N)(=O)=O)cc21 [Dorzolamide HCL] with HL-1, please?
## Output 121

## Input Recorded relative cell viability for CCN(CC)CC(=O)Nc1c(C)cccc1C [Lidocaine] with HL-1, please?
## Output 112

## Input Recorded relative cell viability for CN(C)CCC(c1ccccc1)c1ccccn1 (stereo not given) [Pheniramine Maleate] with HL-1, please?
## Output 113

## Input Recorded relative cell viability for CS(=O)(=O)c1ccc([C@@H](O)[C@@H](CO)NC(=O)C(Cl)Cl)cc1 [Thiamphenicol] with HL-1, please?
## Output 86.5

---

# Tested on: HL-1
# assay.details: relative cell viability (CellTiter-Glo) vs DMSO control (% of DMSO control); higher = more viable cells
# cond: oxygen condition: normoxia 72 h; 200 nM
Structures can show the parent of a compound that is named as a salt.
Response field label takes 1 when relative cell viability is strictly below 100 and 0 in all other cases.

## Input Determine whether this molecule shows relative cell viability lower than 100 (ties excluded): CS(=O)(=O)Nc1ccc([N+](=O)[O-])cc1Oc1ccccc1 [Nimesulide]
## Output 0

## Input Determine whether this molecule shows relative cell viability lower than 100 (ties excluded): CCCCCOC(=O)Nc1nc(=O)n([C@@H]2O[C@H](C)[C@@H](O)[C@H]2O)cc1F [Capecitabine]
## Output 0

## Input Determine whether this molecule shows relative cell viability lower than 100 (ties excluded): C[C@]12CC[C@H](O)CC1=CC[C@@H]1[C@@H]2CC[C@]2(C)C(c3cccnc3)=CC[C@@H]12 [Abiraterone]
## Output 1

## Input Determine whether this molecule shows relative cell viability lower than 100 (ties excluded): CC1=NN(c2ccccc2)C(=O)C1 [Edaravone]
## Output 1

## Input Determine whether this molecule shows relative cell viability lower than 100 (ties excluded): Cc1cn([C@H]2C[C@H](N=[N+]=[N-])[C@@H](CO)O2)c(=O)[nH]c1=O [Zidovudine]
## Output 0

## Input Determine whether this molecule shows relative cell viability lower than 100 (ties excluded): CC(=O)/N=c1/sc(S(N)(=O)=O)nn1C [Methazolamide]
## Output 0

## Input Determine whether this molecule shows relative cell viability lower than 100 (ties excluded): Nc1ccn([C@@H]2O[C@H](CO)[C@@H](O)C2(F)F)c(=O)n1 [Gemcitabine]
## Output 1

## Input Determine whether this molecule shows relative cell viability lower than 100 (ties excluded): Cc1ccc(O)c([C@H](CCN(C(C)C)C(C)C)c2ccccc2)c1 [Tolterodine tartrate]
## Output 0

## Input Determine whether this molecule shows relative cell viability lower than 100 (ties excluded): C=CC[C@@H]1/C=C(\C)C[C@H](C)C[C@H](OC)[C@H]2O[C@@](O)(C(=O)C(=O)N3CCCC[C@H]3C(=O)O[C@H](/C(C)=C/[C@@H]3CC[C@@H](O)[C@H](OC)C3)[C@H](C)[C@@H](O)CC1=O)[C@H](C)C[C@@H]2OC
## Output 0

## Input Determine whether this molecule shows relative cell viability lower than 100 (ties excluded): O=C(O)C1=CO[C@@H](O[C@@H]2O[C@H](CO)[C@@H](O)[C@H](O)[C@H]2O)[C@@H]2C(CO)=CC[C@H]12 [Geniposidic acid]
## Output 0

## Input Determine whether this molecule shows relative cell viability lower than 100 (ties excluded): CN(CCOc1ccc(CC2SC(=O)NC2=O)cc1)c1ccccn1 (centres undefined) [Rosiglitazone]
## Output 0

---

# Tested on: HL-1
# assay.details: relative cell viability (CellTiter-Glo) vs DMSO control (% of DMSO control); higher = more viable cells
# cond: oxygen condition: normoxia 72 h; 1000 nM
Structures can show the parent of a compound that is named as a salt.
Collected relative cell viability values appear next to each entry.
The answer should be written as a number, with no unit following it.

As a guide, the following entries are already answered.
>>> test_value("C[C@@H](O)[C@H]1C(=O)N2C(C(=O)OCOC(=O)C(C)(C)C)=C(SC3CN(C4=NCCS4)C3)[C@H](C)[C@H]12")
101
>>> test_value("CN(C)C/C=C/C(=O)Nc1cc2c(Nc3ccc(F)c(Cl)c3)ncnc2cc1O[C@H]1CCOC1")
72.5
>>> test_value("CC(=O)O[C@H]1C[C@@H]2CC[C@@H]3[C@H](CC[C@@]4(C)[C@H]3C[C@H]([N+]3(C)CCCCC3)[C@@H]4OC(C)=O)[C@@]2(C)C[C@@H]1N1CCCCC1 [Vecuronium Bromide]")
122
>>> test_value("CCOC(=O)c1c(C)n(C)c2ccc(O)cc12 [Mecarbinate]")
106

## Input What value of relative cell viability has been reported for the following compound? CCCCc1oc2ccc(NS(C)(=O)=O)cc2c1C(=O)c1ccc(OCCCN(CCCC)CCCC)cc1 [Dronedarone HCl]
## Output 102

## Input What value of relative cell viability has been reported for the following compound? CC(=O)NS(=O)(=O)c1ccc(N)cc1 [sulfacetamide sodium]
## Output 107

## Input What value of relative cell viability has been reported for the following compound? CCCC(CCC)C(=O)O[C@H]1C[C@H]2CC[C@@H](C1)[N+]2(C)C [Anisotropine Methylbromide]
## Output 84.7

## Input What value of relative cell viability has been reported for the following compound? CN(C)CCC(c1ccccc1)c1ccccn1 (stereo not given) [Pheniramine Maleate]
## Output 104

---

Collected relative cell viability values appear next to each entry.
# System: HL-1
# assay.details: relative cell viability (CellTiter-Glo) vs DMSO control (% of DMSO control); higher = more viable cells
# cond: oxygen condition: normoxia 72 h; 40 nM
Counter-ions that a name gives are not always drawn.
The answer should be written as a number, with no unit following it.

As a guide, the following entries are already answered.
>>> test_value("CCOCC(O)COc1ccc(NC(=O)CC[S+](C)C)cc1 (configuration not stated) [Suplatast tosylate]")
101
>>> test_value("C[C@H](CCC(=O)O)[C@H]1CC[C@H]2[C@@H]3[C@@H](O)C[C@@H]4C[C@H](O)CC[C@]4(C)[C@H]3CC[C@]12C [Ursodiol]")
99.7
>>> test_value("O=C(CCCN1CCN(c2ccccn2)CC1)c1ccc(F)cc1 [Azaperone]")
102

## Input What value of relative cell viability has been reported for the following molecule? CN(C)CCOC(C)(c1ccccc1)c1ccccn1 (configuration not stated) [Doxylamine Succinate]
## Output 107

## Input What value of relative cell viability has been reported for the following molecule? C[C@]12CCC3=C4CCC(=O)C=C4CC[C@H]3[C@@H]1CC[C@@]2(O)CC#N [Dienogest]
## Output 105
